- assayTarget: human D2 dopamine receptor (Homo sapiens)
- Construct: expressed in transfected cells; host or cells: HEK-293 EBNA cells (transient transfection), membrane preparation
- Sequence (P14416 whole entry): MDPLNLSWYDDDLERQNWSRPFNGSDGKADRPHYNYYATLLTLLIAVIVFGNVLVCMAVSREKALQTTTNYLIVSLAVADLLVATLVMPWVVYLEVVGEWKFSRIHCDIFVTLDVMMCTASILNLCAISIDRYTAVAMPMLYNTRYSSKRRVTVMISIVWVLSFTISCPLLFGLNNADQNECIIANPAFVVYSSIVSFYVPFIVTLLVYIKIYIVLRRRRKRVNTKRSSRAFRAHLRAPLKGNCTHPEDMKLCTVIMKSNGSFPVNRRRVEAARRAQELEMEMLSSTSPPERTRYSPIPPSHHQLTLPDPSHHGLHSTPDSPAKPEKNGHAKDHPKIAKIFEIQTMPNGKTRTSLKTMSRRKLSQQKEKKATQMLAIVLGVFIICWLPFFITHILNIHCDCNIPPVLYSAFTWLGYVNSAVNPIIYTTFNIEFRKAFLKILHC
- experimentalDetails: Radioligand binding, human D2 receptor ([3H]-spiperone)
- studyConditions: third value of the cell; membranes of transfected HEK-293 EBNA cells, 0.7 nM [3H]-spiperone; read-out: Ki(nM) D3/5HT2A/D2: D2
measurementLabel: Ki (nM)
One number for each entry, in nM.

As a guide, the following entries are already answered.
## Input Reported Ki for Cc1cc(CC(=O)N[C@H]2CC[C@H](CCN3CCC(C(=O)c4ccc(F)cc4)CC3)CC2)on1 [Example 30A36] : what is it?
## Output 1280

## Input Reported Ki for O=C(N[C@H]1CC[C@H](CCN2CCC(C(=O)c3ccc(F)cc3)CC2)CC1)C1CCCCC1 [Example 29] : what is it?
## Output 450

Kindly consider the entry below.
## Input Reported Ki for O=C(Nc1ccc(Cl)cc1)N[C@H]1CC[C@H](CCN2CCC(C(=O)c3ccc(F)cc3F)CC2)CC1 [Example 64] : what is it?
## Output 4000
